Molecular target: P2X purinoceptor 7 (Homo sapiens)
Sequence (Q99572 whole entry): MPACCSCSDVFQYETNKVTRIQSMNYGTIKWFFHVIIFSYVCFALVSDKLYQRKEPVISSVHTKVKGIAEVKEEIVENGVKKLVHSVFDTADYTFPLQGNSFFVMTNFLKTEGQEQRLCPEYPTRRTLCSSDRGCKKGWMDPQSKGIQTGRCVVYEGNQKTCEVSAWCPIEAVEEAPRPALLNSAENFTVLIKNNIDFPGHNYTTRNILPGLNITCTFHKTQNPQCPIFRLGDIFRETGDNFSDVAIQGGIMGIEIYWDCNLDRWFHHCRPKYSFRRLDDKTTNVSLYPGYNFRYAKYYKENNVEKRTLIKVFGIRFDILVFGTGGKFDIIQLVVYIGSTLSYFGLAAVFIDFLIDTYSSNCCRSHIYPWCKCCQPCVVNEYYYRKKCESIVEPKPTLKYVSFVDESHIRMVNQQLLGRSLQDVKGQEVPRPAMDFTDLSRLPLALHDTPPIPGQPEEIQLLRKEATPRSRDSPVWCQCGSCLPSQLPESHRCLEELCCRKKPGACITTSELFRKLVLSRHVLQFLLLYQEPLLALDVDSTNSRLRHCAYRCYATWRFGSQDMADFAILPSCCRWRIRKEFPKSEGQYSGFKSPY
Experiment: Antagonist activity at human P2X7 receptor expressed in HEK293 cells assessed as reduction in YO-PRO-1 iodide dye uptake preincubated for 30 mins followed by YO-PRO-1 iodide addition and measured after 120 mins by fluorescence plate reader analysis
Type: cell-based
EXPERIMENTAL_ENDPOINT: pIC50
Scale note: pIC50 = -log10(concentration in M).

{"STRUCTURE_AS_SMILES": "Cc1cccc2sc(NC(=O)CCN3CCN(c4ncccn4)CC3)nc12", "pIC50": 5.88}

Form field pIC50, entry Cc1cccc2sc(NC(=O)CCN3CCN(c4ccccn4)CC3)nc12 : 5.85

Form field pIC50, entry Cc1cccc2sc(NC(=O)CCN3CCN(c4ccncc4)CC3)nc12 : 5.95

Form field pIC50, entry Cc1cccc2sc(NC(=O)CCN3CCN(CCN(C)C)CC3)nc12 : 5.67

Form field pIC50, entry Cc1cccc2sc(NC(=O)CCN3CCN(CCCN(C)C)CC3)nc12 : 4.74

###

Experiment: Selectivity index, ratio of Ki for displacement of [3H]DTG from sigma 2 receptor in rat liver membranes to Ki for displacement of [3H]-(+)-pentazocine from sigma1 receptor in guinea pig brain membrane
Format: cell membranes
EXPERIMENTAL_ENDPOINT: Ratio Ki
Lab note: jot down the number only; don't add units.

As a guide, the following entries are already answered.
{"STRUCTURE_AS_SMILES": "Cc1cccc2sc(NC(=O)CCN3CCN(C(C)(C)C)CC3)nc12", "Ratio Ki": 1.36}
{"STRUCTURE_AS_SMILES": "Cc1cccc2sc(NC(=O)CCN3CCN(C(C)C)CC3)nc12", "Ratio Ki": 1.38}
{"STRUCTURE_AS_SMILES": "CCN1CCN(CCC(=O)Nc2nc3c(C)cccc3s2)CC1", "Ratio Ki": 2.21}
{"STRUCTURE_AS_SMILES": "CCOCCN1CCN(CCC(=O)Nc2nc3c(C)cccc3s2)CC1", "Ratio Ki": 2.78}
{"STRUCTURE_AS_SMILES": "CCCCN1CCN(CCC(=O)Nc2nc3c(C)cccc3s2)CC1", "Ratio Ki": 5.88}

Now look at this entry.
Form field Ratio Ki, entry Cc1cccc2sc(NC(=O)CCN3CCN(CC4CCCCC4)CC3)nc12 : 14.8
